The measured values listed here are drawn from PubChem BioAssay (NCI).

Would you mind telling me the reported growth inhibition of each entry?
# measurement-notes: NCI Yeast Anticancer Drug Screen. Data for the mec2-1 strain (AID 157)
# experimental-setup: S. cerevisiae mec2-1 strain, at 50.0 µM, active compounds read high
This is part of a sample that, as a whole, favours compounds with a hit. Of some 79,000 tested, about 15% had one in any assay.
Numbers only, in %.

Example compounds with recorded growth inhibition:
{"compound": "Nc1nc(Cc2ccccc2)nc2[nH]ncc12", "growth inhibition [%]": 6.3}
{"compound": "O=S(=O)(NCCNS(=O)(=O)c1ccccc1)c1ccccc1", "growth inhibition [%]": -13.8}
{"compound": "Cc1[nH]c2ccc(-c3ccccc3)cc2c1CC(=O)O", "growth inhibition [%]": -22.8}
{"compound": "O=C1CCC(C(=O)O)N1 (stereo not given)", "growth inhibition [%]": 4.7}
{"compound": "CSC(=O)c1sc(SC)[n+](-c2ccccc2)c1O", "growth inhibition [%]": -20.2}
{"compound": "COc1ccc(NC(=O)CC(=O)N/N=C/c2ccc(N(CCC#N)S(=O)(=O)c3ccccc3)cc2)cc1", "growth inhibition [%]": -11.8}
{"compound": "CCc1c2ccccc2cc2ccccc12", "growth inhibition [%]": 1.85}
{"compound": "CCCCCCCCCCCCCCCc1c(NC(C)(CC)[P+](=O)O)c(=O)n(C)n1C (stereo not given)", "growth inhibition [%]": -32.5}

Hi, could you look up growth inhibition for each item in my list?
1. C(=Nc1ccccc1)Nc1ccccc1
2. O=C(C(=Nc1ccccc1)C(=Nc1ccccc1)C(=O)c1ccccc1)c1ccccc1
3. CCOC(=O)C#Cc1ccc(C#CC(=O)OCC)cc1
4. N/C(=N\O)C(=O)c1ccccc1
5. CC(=O)Oc1ccc(OC(C)=O)c(C(=O)O)c1
6. O=S(=O)(O)Cc1cccc2ccccc12

Reply:
1: 15.1; 2: 32.1; 3: 19.4; 4: -12.8; 5: -2.65; 6: 6.7

Hi, could you look up growth inhibition for each item in my list?
1. COc1ccc2c(N=[N+]=[N-])c(-c3ccccc3)c(=O)oc2c1
2. Cc1n(C)c(C(O)c2ccccc2)c(Br)[n+]1C (stereo not given)
3. CCOC(=O)c1cc2nc(NC(=O)c3ccccc3)sc2n1C
4. CCOC(=O)C1=CN(C)C=C(Br)C1C#N (stereo not given)
5. CCC(=O)Nc1cc([N+](=O)[O-])cc([N+](=O)[O-])c1
6. COC(=N)CC(=O)C(C)(C)C
7. c1ccc(-c2ccc(-c3ccccc3)cc2)cc1

Reply:
[2.6, 1.4, 8.3, 10.1, -7.3, -15.9, -9.4]

* * *

# measurement-notes: NCI Yeast Anticancer Drug Screen. Data for the sgs1 mgt1 strain (AID 161);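 also: 0% = growth of cultures given vehicle only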
# experimental-setup: S. cerevisiae sgs1 mgt1 strain, at 50.0 µM, active compounds read high
This is part of a sample that, as a whole, favours compounds with a hit. Of some 79,000 tested, about 15% had one in any assay. Activity calls are given as the source filed them. Rule as the data show it: active = growth inhibition above about 70%; inactive = the rest. Where a SMILES comes first, the peptide text is derived from it. The star is where a group is joined. Cbz = O=C(OCc1ccccc1)*
measured-quantity: growth inhibition

{"compound": "CC(=O)COc1ccccc1[N+](=O)[O-]", "growth inhibition": "8.15% (inactive)"}
{"compound": "NCC(=O)Nc1ccc(Cl)cc1C(=O)c1ccc[nH]1", "growth inhibition": "-27.6% (inactive)"}

Hi, could you look up growth inhibition for each item in my list?
1. COc1cc(OC)cc(Oc2nc3ccc(C(F)(F)F)cc3nc2-c2ccccc2)c1
2. O=C1C=C2CCCCCCCC(C1)C2 (stereo not given)
3. CC(C)(OC(=O)Nc1ccccc1)c1ccc([N+](=O)[O-])cc1
4. Cc1c(C)c2cc3c(=O)c(CCl)coc3c(C)c2oc1=O
5. Nc1ccc(S(=O)(=O)CC(=O)N2CCOCC2)cc1
6. COC(=O)C(NC(=O)C(C)NC(=O)C1CCCN1C(=O)CNC(=O)C(CO)NC(=O)C(NC(=O)OCc1ccccc1)C(C)O)C(C)O (stereo not given) (Cbz-TSGPAT-OMe; configuration not given here)

Reply:
1. -7.85% (inactive)
2. 2.25% (inactive)
3. 13.2% (inactive)
4. 16% (inactive)
5. 8.3% (inactive)
6. -4.7% (inactive)

Hi, could you look up growth inhibition for each item in my list?
1. c1cc2c3c(cc4c(c3c1)CCCC4)CC2
2. CSc1ccc(OC(=O)Nc2cc([N+](=O)[O-])ccc2F)cc1C

Reply:
1. -12.9% (inactive)
2. 16% (inactive)
